- Study System: FGFR1 (UniProt P11362)
- Sequence (P11362 whole entry, looked up): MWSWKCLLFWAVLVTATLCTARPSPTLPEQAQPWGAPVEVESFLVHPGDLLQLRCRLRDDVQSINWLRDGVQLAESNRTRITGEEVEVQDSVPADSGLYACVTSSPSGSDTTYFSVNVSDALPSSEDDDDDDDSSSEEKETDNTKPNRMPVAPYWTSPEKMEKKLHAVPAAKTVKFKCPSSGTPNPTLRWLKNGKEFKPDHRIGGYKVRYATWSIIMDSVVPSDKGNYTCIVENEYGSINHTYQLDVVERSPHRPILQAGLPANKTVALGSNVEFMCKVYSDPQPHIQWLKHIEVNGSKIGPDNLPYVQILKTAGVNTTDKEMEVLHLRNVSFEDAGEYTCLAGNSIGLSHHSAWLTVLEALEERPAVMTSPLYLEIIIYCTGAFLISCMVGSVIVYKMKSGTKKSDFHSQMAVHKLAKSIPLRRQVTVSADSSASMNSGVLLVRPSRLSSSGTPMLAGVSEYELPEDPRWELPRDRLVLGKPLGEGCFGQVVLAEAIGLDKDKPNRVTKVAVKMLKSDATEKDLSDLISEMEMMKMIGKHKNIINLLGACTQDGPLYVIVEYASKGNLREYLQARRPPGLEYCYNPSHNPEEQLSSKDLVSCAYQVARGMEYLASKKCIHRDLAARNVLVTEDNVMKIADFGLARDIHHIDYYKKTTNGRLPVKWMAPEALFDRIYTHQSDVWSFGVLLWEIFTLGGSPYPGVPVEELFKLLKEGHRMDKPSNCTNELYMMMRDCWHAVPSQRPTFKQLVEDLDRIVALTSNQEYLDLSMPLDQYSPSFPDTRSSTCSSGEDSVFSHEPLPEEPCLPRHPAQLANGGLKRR
- Method Description: phosphorylation enrichment, bacterial display (enrichment ratio); higher = better substrate or ligand; peptides without Tyr show the background;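 also: 11-residue human phosphosite peptides and single-mutation variants displayed on the E. coli surface, counted by deep sequencing, each peptide's frequency after selection divided by its frequency in the unselected input library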;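 also: frequency after pTyr selection over input frequency; kinase dosed for 20-30% of maximal phosphorylation in three min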
Readout: phosphorylation enrichment
Enter a number only.

These solved cases illustrate the format of a correct answer.
Query Sequence: SVKVYYKKCWS [EPHA7_Y202]
Study System: FGFR1 (UniProt P11362)
Numeric Result: 0.414
//
Query Sequence: PLQNTYNFNVL [SLC4A1_Y553_K551N_YF]
Study System: FGFR1 (UniProt P11362)
Numeric Result: 0.803
//
Query Sequence: EFITRYIDSLK [PSMA7_Y110_A112D_YF]
Study System: FGFR1 (UniProt P11362)
Numeric Result: 0.558
//
Query Sequence: HNLPIYEGYAL [ACTA1_Y168_V165L]
Study System: FGFR1 (UniProt P11362)
Numeric Result: 0.547
//
Query Sequence: NDLMEYPKQHG [ASS1_Y163_A164P]
Study System: FGFR1 (UniProt P11362)
Numeric Result: 0.506

Prompt line: Dear colleague, I am looking for the recorded phosphorylation enrichment of the following sequence: QEALEYFMKQT [PIK3CA_Y1038_M1043T]
Response line: 1.67

Prompt line: Moving on to QAFSWYQHQRA [NDST1_Y714_R709Q_YF]
Response line: 0.687
